Data provenance is the supplement of paper PMC11732987.

- targetOrTestSystem: USP34 (UniProt Q70CQ2)
- Sequence (Q70CQ2 whole entry, the tested form may be a part): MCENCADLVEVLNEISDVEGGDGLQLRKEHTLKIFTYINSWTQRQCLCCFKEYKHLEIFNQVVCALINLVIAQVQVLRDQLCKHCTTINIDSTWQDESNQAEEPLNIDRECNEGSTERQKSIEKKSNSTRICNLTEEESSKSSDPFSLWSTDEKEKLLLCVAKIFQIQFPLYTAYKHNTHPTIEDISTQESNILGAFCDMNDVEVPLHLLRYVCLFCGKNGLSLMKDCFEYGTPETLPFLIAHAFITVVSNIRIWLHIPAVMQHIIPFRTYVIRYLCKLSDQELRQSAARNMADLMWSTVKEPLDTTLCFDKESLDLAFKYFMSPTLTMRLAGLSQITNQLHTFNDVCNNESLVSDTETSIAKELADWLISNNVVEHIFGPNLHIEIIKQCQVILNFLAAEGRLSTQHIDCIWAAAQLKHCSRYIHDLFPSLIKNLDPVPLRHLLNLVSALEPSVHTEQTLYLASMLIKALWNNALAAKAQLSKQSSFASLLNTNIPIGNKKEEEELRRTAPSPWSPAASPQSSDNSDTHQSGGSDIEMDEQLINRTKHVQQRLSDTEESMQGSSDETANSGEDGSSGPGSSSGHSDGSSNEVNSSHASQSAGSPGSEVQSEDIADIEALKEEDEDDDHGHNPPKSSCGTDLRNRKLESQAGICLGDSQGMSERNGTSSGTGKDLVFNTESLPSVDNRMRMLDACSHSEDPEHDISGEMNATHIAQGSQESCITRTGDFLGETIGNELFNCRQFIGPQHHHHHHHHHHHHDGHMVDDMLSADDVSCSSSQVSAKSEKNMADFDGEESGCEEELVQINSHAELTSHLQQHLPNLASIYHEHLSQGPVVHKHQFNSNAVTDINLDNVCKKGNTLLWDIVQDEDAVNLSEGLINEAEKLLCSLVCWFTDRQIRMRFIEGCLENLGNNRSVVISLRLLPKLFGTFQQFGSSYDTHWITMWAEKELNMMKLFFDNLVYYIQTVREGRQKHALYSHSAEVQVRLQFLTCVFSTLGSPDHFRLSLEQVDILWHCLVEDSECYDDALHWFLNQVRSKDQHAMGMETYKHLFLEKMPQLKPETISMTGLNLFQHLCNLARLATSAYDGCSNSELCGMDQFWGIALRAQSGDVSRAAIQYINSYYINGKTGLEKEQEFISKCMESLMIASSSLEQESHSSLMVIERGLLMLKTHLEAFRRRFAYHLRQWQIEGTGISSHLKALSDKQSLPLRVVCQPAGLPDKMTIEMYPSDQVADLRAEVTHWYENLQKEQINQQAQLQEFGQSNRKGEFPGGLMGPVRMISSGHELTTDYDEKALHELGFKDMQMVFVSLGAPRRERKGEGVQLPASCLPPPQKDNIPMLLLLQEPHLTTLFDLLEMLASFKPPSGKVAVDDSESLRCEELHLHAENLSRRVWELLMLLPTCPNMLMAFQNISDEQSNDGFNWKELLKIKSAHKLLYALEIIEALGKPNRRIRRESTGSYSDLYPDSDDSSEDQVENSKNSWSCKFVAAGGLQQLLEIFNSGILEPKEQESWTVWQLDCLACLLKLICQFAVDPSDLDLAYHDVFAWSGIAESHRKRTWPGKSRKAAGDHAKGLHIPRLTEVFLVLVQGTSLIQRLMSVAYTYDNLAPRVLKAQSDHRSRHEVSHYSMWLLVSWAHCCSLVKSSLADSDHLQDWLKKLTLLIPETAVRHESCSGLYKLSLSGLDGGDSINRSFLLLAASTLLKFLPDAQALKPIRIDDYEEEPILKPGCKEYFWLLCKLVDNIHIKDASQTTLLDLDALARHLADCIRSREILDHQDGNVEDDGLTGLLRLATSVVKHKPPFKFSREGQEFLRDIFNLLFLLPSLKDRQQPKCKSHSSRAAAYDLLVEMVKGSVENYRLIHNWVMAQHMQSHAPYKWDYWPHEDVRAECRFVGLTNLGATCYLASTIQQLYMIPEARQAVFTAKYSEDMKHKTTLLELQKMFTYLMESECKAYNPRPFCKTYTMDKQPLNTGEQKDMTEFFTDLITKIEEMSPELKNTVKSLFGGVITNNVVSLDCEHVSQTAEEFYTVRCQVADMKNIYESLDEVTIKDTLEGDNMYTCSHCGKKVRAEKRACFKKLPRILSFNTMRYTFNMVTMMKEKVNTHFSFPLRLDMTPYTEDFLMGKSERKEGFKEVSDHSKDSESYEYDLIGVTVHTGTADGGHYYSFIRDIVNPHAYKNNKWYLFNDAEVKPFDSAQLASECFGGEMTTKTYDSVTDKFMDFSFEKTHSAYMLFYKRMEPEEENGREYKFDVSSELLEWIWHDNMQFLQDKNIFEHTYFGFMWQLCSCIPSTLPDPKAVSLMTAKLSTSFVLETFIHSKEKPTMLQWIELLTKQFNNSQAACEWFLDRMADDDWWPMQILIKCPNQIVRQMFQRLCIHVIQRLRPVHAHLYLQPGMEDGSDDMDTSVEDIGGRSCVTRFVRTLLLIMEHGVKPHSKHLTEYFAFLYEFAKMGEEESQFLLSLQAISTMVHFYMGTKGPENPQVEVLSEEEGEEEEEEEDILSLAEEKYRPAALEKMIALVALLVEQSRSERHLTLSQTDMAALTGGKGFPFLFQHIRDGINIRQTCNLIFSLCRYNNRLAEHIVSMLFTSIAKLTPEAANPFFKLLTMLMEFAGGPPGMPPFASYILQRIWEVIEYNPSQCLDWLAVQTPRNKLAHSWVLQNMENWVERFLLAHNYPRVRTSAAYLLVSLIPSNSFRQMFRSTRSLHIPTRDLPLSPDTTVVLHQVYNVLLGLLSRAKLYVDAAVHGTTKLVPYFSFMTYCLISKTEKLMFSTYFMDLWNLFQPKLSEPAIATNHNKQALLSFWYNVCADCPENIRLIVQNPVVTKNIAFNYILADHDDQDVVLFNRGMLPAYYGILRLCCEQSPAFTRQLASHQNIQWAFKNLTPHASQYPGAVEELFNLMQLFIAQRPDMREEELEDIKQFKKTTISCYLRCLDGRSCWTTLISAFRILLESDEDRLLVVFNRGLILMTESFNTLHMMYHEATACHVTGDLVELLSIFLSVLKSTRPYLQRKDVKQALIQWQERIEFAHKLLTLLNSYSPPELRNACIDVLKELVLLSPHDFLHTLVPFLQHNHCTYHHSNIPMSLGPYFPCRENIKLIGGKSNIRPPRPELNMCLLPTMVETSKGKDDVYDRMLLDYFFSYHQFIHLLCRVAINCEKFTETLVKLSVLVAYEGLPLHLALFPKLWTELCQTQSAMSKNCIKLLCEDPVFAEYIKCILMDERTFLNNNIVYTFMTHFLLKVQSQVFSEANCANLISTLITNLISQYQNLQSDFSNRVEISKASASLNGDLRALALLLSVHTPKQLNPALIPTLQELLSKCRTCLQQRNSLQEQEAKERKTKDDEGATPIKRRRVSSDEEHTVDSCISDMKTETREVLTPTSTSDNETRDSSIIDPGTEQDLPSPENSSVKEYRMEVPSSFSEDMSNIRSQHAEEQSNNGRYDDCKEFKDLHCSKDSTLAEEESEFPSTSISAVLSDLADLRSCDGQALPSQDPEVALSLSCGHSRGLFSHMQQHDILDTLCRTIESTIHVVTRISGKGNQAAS
- measurementProtocol: log2 ratio of Biotin-Ahx-Ub-VS probe labelling (fragment/DMSO); higher = less target engagement (more negative = stronger competition), active = hit call of the paper (q ≤ 0.05, log2 ratio ≤ -1)
- condition: compound concentration: 200 uM; treatment time: 3 h
measuredMetric: log2 ratio of Biotin-Ahx-Ub-VS probe labelling

| compound | targetOrTestSystem | recordedValue |
| --- | --- | --- |
| O=C(CCl)Nc1cc2c(cc1Cl)OCCCO2 | USP34 (UniProt Q70CQ2) | 0.0191 |
| O=C(CCl)N1CCC(C(=O)N2CCCCCC2)CC1 | USP34 (UniProt Q70CQ2) | -0.0554 |
| O=C(CCl)N1CCC(S(=O)(=O)c2ccc(F)cc2)CC1 | USP34 (UniProt Q70CQ2) | -0.128 |
| Cl.Cn1nccc1C(NC(=O)CCl)c1ccccc1 (stereo not drawn) | USP34 (UniProt Q70CQ2) | -0.0966 |
| CC(O)CC1CCN(C(=O)CCl)CC1 (stereo not drawn) | USP34 (UniProt Q70CQ2) | -0.0285 |
| O=C(CCl)Nc1cc(Cl)ccc1-n1cncn1 | USP34 (UniProt Q70CQ2) | -0.448 |
| Cc1nc(CN2CCN(C(=O)CCl)CC2)cs1 | USP34 (UniProt Q70CQ2) | 0.0453 |
| Cl.O=C(CCl)NCc1ccnc(Oc2ccccc2F)c1 | USP34 (UniProt Q70CQ2) | -0.267 |
| O=C(CCl)N1CCc2ccccc2C(O)C1 (stereo not drawn) | USP34 (UniProt Q70CQ2) | -0.224 |
| Cl.Cn1ncc2c1CCCC2NC(=O)CCl (stereo not drawn) | USP34 (UniProt Q70CQ2) | -0.0828 |
| O=C(CCl)N(C1CCCC1)C1CCS(=O)(=O)C1 (stereo not drawn) | USP34 (UniProt Q70CQ2) | -0.0865 |
| CS(=O)(=O)N1CCCN(C(=O)CCl)CC1 | USP34 (UniProt Q70CQ2) | -0.016 |
| O=C(CCl)NC1(c2ccc3c(c2)OCCO3)CCCC1 | USP34 (UniProt Q70CQ2) | -0.146 |
| Cl.O=C(CCl)N[C@H]1C[C@@H](n2cccn2)C1 | USP34 (UniProt Q70CQ2) | -0.109 |
| NC(=O)C1CCCN(C(=O)CCl)C1 (stereo not drawn) | USP34 (UniProt Q70CQ2) | -0.00128 |
| Cc1ccc(-c2nnc(C)[nH]2)c(NC(=O)CCl)c1 | USP34 (UniProt Q70CQ2) | 0.0375 |
| CCCn1nccc1NC(=O)CCl | USP34 (UniProt Q70CQ2) | -0.0454 |
| Cc1nc(CN2CCCN(C(=O)CCl)CC2)no1.Cl | USP34 (UniProt Q70CQ2) | 0.0178 |
| Cc1c(NC(=O)CCl)c(=O)n(-c2ccccc2)n1C | USP34 (UniProt Q70CQ2) | -0.0386 |
| CS(=O)(=O)c1ccc(CNC(=O)CCl)cc1 | USP34 (UniProt Q70CQ2) | -0.0991 |
| COc1ccc(CN(C)C(=O)CCl)cc1 | USP34 (UniProt Q70CQ2) | -0.0886 |
| O=C(CCl)N1CCc2nc[nH]c2C1c1ccc(Cl)cc1 (stereo not drawn) | USP34 (UniProt Q70CQ2) | -0.355 |
| Cc1ccc(N(CCC#N)C(=O)CCl)cc1C | USP34 (UniProt Q70CQ2) | -0.0882 |
| O=C(CCl)NC1CCC2(CC1)OCCO2 | USP34 (UniProt Q70CQ2) | -0.314 |
| Cc1ccc(CN(CCO)C(=O)CCl)cc1 | USP34 (UniProt Q70CQ2) | 0.0432 |
| O=C(CCl)N1CCC(C(O)c2ccc(F)cc2)CC1 (stereo not drawn) | USP34 (UniProt Q70CQ2) | -0.0791 |
| COc1cc(Cl)c(C)cc1NC(=O)CCl | USP34 (UniProt Q70CQ2) | -0.327 |
| Cl.O=C(CCl)NCc1cc2c(nc1O)CCCC2 | USP34 (UniProt Q70CQ2) | -0.103 |

====

- targetOrTestSystem: OTUB1 (UniProt Q96FW1)
- Sequence (Q96FW1 whole entry, the tested form may be a part): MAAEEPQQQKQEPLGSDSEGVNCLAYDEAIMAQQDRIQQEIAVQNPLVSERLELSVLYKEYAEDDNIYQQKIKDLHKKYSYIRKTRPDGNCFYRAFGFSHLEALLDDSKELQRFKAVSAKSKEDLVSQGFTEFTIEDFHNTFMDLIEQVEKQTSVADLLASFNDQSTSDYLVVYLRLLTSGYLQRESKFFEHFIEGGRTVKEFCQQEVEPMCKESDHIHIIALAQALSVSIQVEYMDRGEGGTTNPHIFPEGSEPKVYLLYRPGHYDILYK
- measurementProtocol: log2 ratio of Biotin-Ahx-Ub-VS probe labelling (fragment/DMSO); higher = less target engagement (more negative = stronger competition), active = hit call of the paper (q ≤ 0.05, log2 ratio ≤ -1)
- condition: compound concentration: 200 uM; treatment time: 3 h
measuredMetric: log2 ratio of Biotin-Ahx-Ub-VS probe labelling

| structureAsSmiles | recordedValue |
| --- | --- |
| O=C(CCl)N1CCOC2(CCC2)C1 | -0.141 |
| Cc1ccccc1C1(CNC(=O)CCl)CCOCC1 | -0.0623 |
| O=C(CCl)NCc1noc(C2CC2)n1 | -0.305 |
| O=C(CCl)Nc1cc2c(cc1Cl)OCCCO2 | -0.0827 |
| C[C@H]1CN(C(=O)CCl)CCN1C(=O)c1cnn(C)c1.Cl | -0.204 |
| Cc1nc(CN2CCN(C(=O)CCl)CC2)cs1 | 0.0298 |
| O=C(CCl)N1CCc2[nH]c3ccccc3c2C1 | -0.167 |
| O=C(CCl)NCc1ccc(N2CCOCC2)c(F)c1 | -0.0261 |

====

- targetOrTestSystem: UniProt Q8TE49
- Sequence (Q8TE49 whole entry, the tested form may be a part): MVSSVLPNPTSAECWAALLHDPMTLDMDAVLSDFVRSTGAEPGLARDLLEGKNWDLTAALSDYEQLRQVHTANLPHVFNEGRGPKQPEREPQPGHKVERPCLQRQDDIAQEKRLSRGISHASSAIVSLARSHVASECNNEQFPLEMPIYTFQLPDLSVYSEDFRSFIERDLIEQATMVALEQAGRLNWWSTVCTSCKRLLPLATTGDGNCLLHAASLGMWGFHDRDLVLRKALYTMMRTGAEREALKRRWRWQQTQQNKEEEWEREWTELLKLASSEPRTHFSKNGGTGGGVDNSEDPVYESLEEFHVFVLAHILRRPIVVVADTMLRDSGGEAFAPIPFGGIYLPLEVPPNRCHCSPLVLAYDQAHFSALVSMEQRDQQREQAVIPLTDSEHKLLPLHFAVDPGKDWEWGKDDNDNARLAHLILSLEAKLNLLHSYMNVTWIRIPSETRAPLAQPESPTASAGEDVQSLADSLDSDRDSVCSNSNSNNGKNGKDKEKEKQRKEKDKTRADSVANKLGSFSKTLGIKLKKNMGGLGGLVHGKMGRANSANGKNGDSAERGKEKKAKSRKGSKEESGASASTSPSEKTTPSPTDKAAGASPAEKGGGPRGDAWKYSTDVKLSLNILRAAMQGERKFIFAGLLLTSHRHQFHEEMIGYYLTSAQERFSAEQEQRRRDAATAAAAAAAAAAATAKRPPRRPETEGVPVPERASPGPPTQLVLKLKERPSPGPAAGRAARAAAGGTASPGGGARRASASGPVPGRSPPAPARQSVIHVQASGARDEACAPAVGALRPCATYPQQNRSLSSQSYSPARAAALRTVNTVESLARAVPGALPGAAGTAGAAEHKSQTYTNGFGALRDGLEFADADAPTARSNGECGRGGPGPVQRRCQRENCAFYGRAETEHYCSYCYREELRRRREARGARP
- measurementProtocol: log2 ratio of Biotin-Ahx-Ub-VS probe labelling (fragment/DMSO); higher = less target engagement (more negative = stronger competition), active = hit call of the paper (q ≤ 0.05, log2 ratio ≤ -1)
- condition: compound concentration: 200 uM; treatment time: 3 h
Outcome codes: active, inactive

| molecule | classAssignment |
| --- | --- |
| O=C(CCl)N1CCC(c2ccn[nH]2)C1 (configuration not stated) | inactive |
| CN(Cc1nc2ccccc2[nH]1)C(=O)CCl.Cl | inactive |
| O=C(CCl)NC1CCN(C(=O)C2CCCCC2)CC1 | inactive |
| Cc1ccc(C)c(NC(=O)CCl)c1 | inactive |
| COCC1C=CCCN1C(=O)CCl (configuration not stated) | inactive |
| Cc1cccc(NC(=O)CCl)c1C | inactive |
| O=C(CCl)NC1(c2ccc3c(c2)OCCO3)CCCC1 | inactive |
| CC1CCc2onc(CNC(=O)CCl)c2C1 (configuration not stated) | inactive |
| CC(NC(=O)CCl)c1cccc2ccccc12 (configuration not stated) | active |
| Cl.O=C(CCl)NCCc1ncc(F)cc1F | inactive |
| Cc1cc(NC(=O)CCl)n(-c2ccccc2)n1 | inactive |
| Cl.O=C(CCl)N[C@H]1C[C@@H](n2cccn2)C1 | inactive |
| O=C(CCl)NCCc1ccc2c(c1)OCCO2 | inactive |
| O=C(CCl)NC1CCC2(CC1)OCCO2 | inactive |
| O=C(CCl)NCc1noc(C2CC2)n1 | inactive |
| O=C(CCl)N1CCN2C(=O)CCC2C1 (configuration not stated) | inactive |
| Cc1ccc(CNC(=O)CCl)nc1C.Cl | inactive |
| Cc1cccc(C(CNC(=O)CCl)N2CCOCC2)c1.Cl (configuration not stated) | inactive |
| O=C(CCl)N1CCN(C(=O)N2CCCCC2)CC1 | inactive |
| CS(=O)(=O)c1ccc(NC(=O)CCl)cc1 | inactive |
| O=C(CCl)N1CCc2nc[nH]c2C1c1ccc(Cl)cc1 (configuration not stated) | active |
| Cc1ccc(C)c(Oc2ccc(CNC(=O)CCl)cn2)c1.Cl | inactive |
| O=C(CCl)NC1CCCCNC1=O (configuration not stated) | inactive |
| Cc1ccc(CC(NC(=O)CCl)c2ccccn2)cc1.Cl (configuration not stated) | inactive |
| Cl.O=C(CCl)N1CCC(n2nc3ccccc3n2)CC1 | inactive |
| O=C(CCl)NC1CCOc2ccccc21 (configuration not stated) | active |
| CC(NC(=O)CCl)c1csc(-c2ccccc2)n1.Cl (configuration not stated) | active |
| O=C(CCl)N(Cc1ccsc1)C1CC1 | inactive |
| O=C(CCl)N1CC=C(c2c[nH]c3ccccc23)CC1 | inactive |
| Cc1cccc2nc(CCNC(=O)CCl)cn12.Cl | inactive |
| COc1ccc(CN(C)C(=O)CCl)cc1 | inactive |
| Cc1cc(C(=O)NC2CCN(C(=O)CCl)CC2)no1 | inactive |
| CC1(NC(=O)CCl)CCS(=O)(=O)C1 (configuration not stated) | active |
| Cc1ncsc1CCNC(=O)CCl | inactive |
| Cl.O=C(CCl)NC1(c2ncccn2)CCC1 | inactive |
| O=C(CCl)N(C1CCCC1)C1CCS(=O)(=O)C1 (configuration not stated) | inactive |
| CN1c2ccccc2C(NC(=O)CCl)CS1(=O)=O (configuration not stated) | active |
| O=C(CCl)NCc1ccc(N2CCOCC2)nc1 | inactive |
| O=C(CCl)N1CCN(C(=O)Nc2ccccc2)CC1 | inactive |
| O=C(CCl)Nc1ccc(Cl)c(F)c1 | inactive |
| Cc1c(C#N)c(NC(=O)CCl)n(Cc2ccco2)c1C | active |
| CC(=O)Nc1ccc(NC(=O)CCl)cc1 | inactive |
| O=C(CCl)NCc1cccc(N2CCCC2=O)c1 | inactive |
| O=C(CCl)N1CCC(S(=O)(=O)c2ccc(F)cc2)CC1 | inactive |
| Cc1ccc(CN(C)C(=O)CCl)o1 | inactive |
| Cc1ccccc1CN(C)C(=O)CCl | active |
| Cc1noc(N2CCN(C(=O)CCl)CC2)n1.Cl | inactive |
| COc1ccc(-c2csc(NC(=O)CCl)n2)cc1 | inactive |
| Cc1cccc(N(CCC#N)C(=O)CCl)c1C | active |
| O=C(CCl)N1CCC[C@@H]1c1ccon1 | inactive |
| Cc1ccc(CN(CCO)C(=O)CCl)cc1 | inactive |
| O=C(CCl)N1CCC2(CCC(O)CC2)CC1 | inactive |
| Cl.Cn1nc2c(c1CNC(=O)CCl)CCCC2 | inactive |
| Cl.O=C(CCl)N1CCn2ncc(O)c2C1 | active |
| Cl.Cn1ncc2c1CCCC2NC(=O)CCl (configuration not stated) | active |
| COc1ccc(C2CCCN2C(=O)CCl)c(OC)c1 (configuration not stated) | inactive |
| CN1C(=O)c2ccc(NC(=O)CCl)cc2C1=O | active |
